tested on: HCC-15; assay: relative viability (nuclei count vs DMSO), 5 days (fraction); higher = more cells survive; conditions: first compound 0.8 µM
readout label: relative viability
# print the numeric value only

Data request: Request body: readout relative viability, system HCC-15, query C=C1C(=O)O[C@@H](CCCCCCCC)[C@@H]1C(=O)O [C-75] + CS(=O)(=O)N1CCN(Cc2cc3nc(-c4cccc5[nH]ncc45)nc(N4CCOCC4)c3s2)CC1 [Pictilisib] (partner 1 µM) . Return the value.
Data returned: 0.654

Data request: Request body: readout relative viability, system HCC-15, query C=C1C(=O)O[C@@H](CCCCCCCC)[C@@H]1C(=O)O [C-75] + Cc1nc(Nc2ncc(C(=O)Nc3c(C)cccc3Cl)s2)cc(N2CCN(CCO)CC2)n1 [Dasatinib] (partner 0.075 µM) . Return the value.
Data returned: 0.602

Data request: Request body: readout relative viability, system HCC-15, query Oc1nc(-c2ccc(C(F)(F)F)cc2)nc2c1CSCC2 [XAV939] + CS(=O)(=O)CCNCc1ccc(-c2ccc3ncnc(Nc4ccc(OCc5cccc(F)c5)c(Cl)c4)c3c2)o1 [Lapatinib] (partner 2 µM) . Return the value.
Data returned: 0.829

Data request: Request body: readout relative viability, system HCC-15, query Oc1nc(-c2ccc(C(F)(F)F)cc2)nc2c1CSCC2 [XAV939] + Nc1ncn([C@H]2C[C@H](O)[C@@H](CO)O2)c(=O)n1 [Decitabine] (partner 2 µM) . Return the value.
Data returned: 0.656

Data request: Request body: readout relative viability, system HCC-15, query Oc1nc(-c2ccc(C(F)(F)F)cc2)nc2c1CSCC2 [XAV939] + CC(C)C[C@H](NC(=O)[C@H](Cc1ccccc1)NC(=O)c1cnccn1)B(O)O [Bortezomib] (partner 0.002 µM) . Return the value.
Data returned: 1.05
